So I've got a bunch of molecules here, and I need their % degree of polymerization after 2 sec values.
assay: FT-IR degree of polymerization in a pigmented composition (as sensitizer of Esacure 1001); settings: 0.5% sensitizer, 3% Esacure 1001, 3% Esacure A 198, cyan ink, 3 μm film; 2 sec
Numbers only, in %.

| MOLECULE | READOUT_NUMBER |
| --- | --- |
| CC(C)c1ccc2sc3ccccc3c(=O)c2c1 [ITX, isopropyl thioxanthone, reference compound] | 31.4 |

# batch: return % degree of polymerization after 2 sec for each of the 3 molecules below
1. Cc1ccc2sc3cc(C(=O)N(CC(C)C)CC(C)C)ccc3c(=O)c2c1 [Example 5]
2. C=CCOC(=O)c1ccc2c(=O)c3cc(C)ccc3sc2c1 [Example 4]
3. CCCCCCCCCCCCOC(=O)c1ccc2c(=O)c3cc(C)ccc3sc2c1 [Example 1]

[36.7, 33.2, 29.9]
